- method_notes: NCI Yeast Anticancer Drug Screen. Data for the rad50 strain (AID 155);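 further: 0% = growth of vehicle-only cultures of the same strain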
- particulars: S. cerevisiae rad50 strain growth inhibition; at 50.0 µM
About 79,000 compounds went through this panel and 15% of them were active in at least one assay; those are over-represented in the sample as a whole. The source made the active and inactive calls. No stated cut-off is given here; in the data, active means growth inhibition above about 70%; inactive means the rest. Where a SMILES comes first, the peptide text is derived from it. [ ]: non-standard residue; d: D form. The star is where a group is joined. Phe(4-NO2) = N[CH](Cc1ccc([N+](=O)[O-])cc1)C(=O)O; Boc = CC(C)(C)OC(=O)*; OtBu = CC(C)(C)O*
In this exercise, the only acceptable responses are active, inactive

Query :: Kindly provide the recorded test outcome for the following compound: O=C(O)/N=N\C(=O)O
Result :: inactive

Query :: Kindly provide the recorded test outcome for the following compound: C=C(CC)C(=O)c1ccc(OCC(=O)O)c(Cl)c1Cl
Result :: inactive

Query :: Kindly provide the recorded test outcome for the following compound: COC(=O)CCS/C=C/C(=O)O
Result :: inactive

Query :: Kindly provide the recorded test outcome for the following compound: COc1cccc(Oc2ccc(C)cc2)c1
Result :: inactive

Query :: Kindly provide the recorded test outcome for the following compound: O=C(O)CCCc1ccc2c(c1)-c1ccccc1S2=O (stereo unspecified)
Result :: inactive

Query :: Kindly provide the recorded test outcome for the following compound: CC(C)N(CSc1ccc([N+](=O)[O-])cc1)CSc1ccc([N+](=O)[O-])cc1
Result :: inactive

Query :: Kindly provide the recorded test outcome for the following compound: O=[N+]([O-])c1cc(F)ccc1Sc1ccccc1
Result :: inactive

Query :: Kindly provide the recorded test outcome for the following compound: O=C(OC(=O)c1ccc(Cl)cc1)c1ccc(Cl)cc1
Result :: inactive

Query :: Kindly provide the recorded test outcome for the following compound: CCCN=C(C)C(C)=NCCC
Result :: inactive

Query :: Kindly provide the recorded test outcome for the following compound: Cn1c2ccccc2c2c3ccc[n+](C)c3ccc21
Result :: inactive

Query :: Kindly provide the recorded test outcome for the following compound: OC(c1cccc(Cl)c1)C(Cl)Cl (stereo unspecified)
Result :: inactive

Query :: Kindly provide the recorded test outcome for the following compound: Nc1cc(=O)n(-c2ccccc2)[nH]1
Result :: inactive

Query :: Kindly provide the recorded test outcome for the following compound: c1ccc(N=C(C(=Nc2ccccc2)c2ccccc2)c2ccccc2)cc1
Result :: inactive

Query :: Kindly provide the recorded test outcome for the following compound: COC1(C)CNc2ccccc2C(=O)N1 (stereo unspecified)
Result :: inactive

Query :: Kindly provide the recorded test outcome for the following compound: CC(C)CC(NC(=O)C(C)NC(=O)C(NC(=O)OCc1ccccc1)C(C)O)C(=O)NC(CC(C)C)C(=O)NCC(=O)NN (stereo unspecified)
Result :: inactive

Query :: Kindly provide the recorded test outcome for the following compound: CSc1nc(N(C)C)c2[nH]c(C)nc2n1
Result :: inactive

Query :: Kindly provide the recorded test outcome for the following compound: C=C(C)C(=O)NC(Cc1cnc[nH]1)C(=O)O (stereo unspecified)
Result :: inactive

Query :: Kindly provide the recorded test outcome for the following compound: O=[N+]([O-])c1cccc(CO)c1
Result :: inactive

Query :: Kindly provide the recorded test outcome for the following compound: CCOCCOCCOC12C(=O)C(Cl)=C(Cl)C(=O)C13C1CC2C(Cl)C13 (stereo unspecified)
Result :: active

Query :: Kindly provide the recorded test outcome for the following compound: Cc1ccc2c(c1)[nH]c1ccccc12
Result :: inactive

Query :: Kindly provide the recorded test outcome for the following compound: CCN(CC)Cc1c(C)cccc1O
Result :: inactive

Query :: Kindly provide the recorded test outcome for the following compound: CC(=O)NC(CCC(=O)OC(C)(C)C)C(=O)NC(CCC(=O)OC(C)(C)C)C(=O)NC(Cc1ccc([N+](=O)[O-])cc1)C(=O)NC(CCCCNC(=O)OC(C)(C)C)C(=O)NC(CCCCNC(=O)OC(C)(C)C)C(=O)NCC(=O)O (stereo unspecified) (Ac-E(OtBu)E(OtBu)[Phe(4-NO2)]K(Boc)K(Boc)G-OH; configuration not given here)
Result :: inactive

Query :: Kindly provide the recorded test outcome for the following compound: C/C(NN(C)C)=C(\C#N)C(=O)/C=C/c1cccs1
Result :: inactive

Query :: Kindly provide the recorded test outcome for the following compound: O=C(O)c1ccc(NC(=S)Nc2ccc(C(=O)O)cc2)cc1
Result :: inactive

Query :: Kindly provide the recorded test outcome for the following compound: CN(C)CCC(CCN(C)C)=NO
Result :: inactive

Query :: Kindly provide the recorded test outcome for the following compound: COc1cc(/C=C/C(=O)c2ccccc2O)cc(OC)c1OC
Result :: inactive

Query :: Kindly provide the recorded test outcome for the following compound: NC(=O)C(=O)N/N=C1/c2ccccc2CC1C1(O)C(=O)Nc2c(Cl)cc(Cl)cc21 (stereo unspecified)
Result :: inactive

Query :: Kindly provide the recorded test outcome for the following compound: COC(=O)c1c2c(C)ccc(C)c2nc2c(C)ccc(C)c12
Result :: inactive

Query :: Kindly provide the recorded test outcome for the following compound: COC(=O)c1nc(N)nc(C(=O)OC)c1C(=O)c1cccc2ccccc12
Result :: inactive

Query :: Kindly provide the recorded test outcome for the following compound: O=C(NC1CCCN1C(=O)/C=C\c1ccccc1)OCc1ccccc1 (stereo unspecified)
Result :: inactive

Query :: Kindly provide the recorded test outcome for the following compound: O=[N+]([O-])c1ccc(/C=N\NC(=S)Nc2ccc3cn[nH]c3c2)cc1
Result :: inactive

Query :: Kindly provide the recorded test outcome for the following compound: CCOc1c2c(nn(C)c1=O)Oc1ccccc1N2CCCN1CCOCC1
Result :: inactive

Query :: Kindly provide the recorded test outcome for the following compound: O=C(NCCO)c1ccc(Cl)cc1
Result :: inactive

Query :: Kindly provide the recorded test outcome for the following compound: CC(CN(C)C)CN1c2ccccc2Sc2ccccc21 (stereo unspecified)
Result :: inactive

Query :: Kindly provide the recorded test outcome for the following compound: CCCCOCCOCC(C)O (stereo unspecified)
Result :: inactive

Query :: Kindly provide the recorded test outcome for the following compound: Fc1c(F)c(F)c(-c2nnc(-c3c(F)c(F)c(F)c(F)c3F)o2)c(F)c1F
Result :: inactive

Query :: Kindly provide the recorded test outcome for the following compound: NNC(=O)c1c(-c2cccnc2)cnc2ccccc12
Result :: inactive

Query :: Kindly provide the recorded test outcome for the following compound: NC(CCCCn1nnc2c(=O)[nH]cnc21)C(=O)O (stereo unspecified)
Result :: inactive

Query :: Kindly provide the recorded test outcome for the following compound: COc1ccc(N2C(=O)/C(=C/c3ccc(N(CCC#N)CCC#N)cc3C)N=C2c2cc([N+](=O)[O-])ccc2Cl)cc1
Result :: inactive

Query :: Kindly provide the recorded test outcome for the following compound: CS(=O)(=O)Nc1cccc(C(=O)O)c1
Result :: inactive

Query :: Kindly provide the recorded test outcome for the following compound: CN1CC(C(N)=O)=CC(C(N)=O)C1 (stereo unspecified)
Result :: inactive

----------
Provide the recorded growth inhibition for the entries that follow.
- method_notes: NCI Yeast Anticancer Drug Screen. Data for the bub3 strain (AID 167)
- particulars: S. cerevisiae bub3 mutant strain, at 50.0 µM, active compounds read high
About 79,000 compounds went through this panel and 15% of them were active in at least one assay; those are over-represented in the sample as a whole.
Expressed in %, but write only the number.

Recorded result, Cc1ccc(NC(=O)CSc2nnc(-c3ccc(N=Cc4ccc(Cl)cc4)cc3)o2)cc1 , growth inhibition: -15.8

Recorded result, ON=C(C1CCCCC1)C1CCCCC1 , growth inhibition: -18.3

Recorded result, O=[N+]([O-])c1ccc(SC2OC(CO)C(O)C(O)C2O)c([N+](=O)[O-])c1 (configuration not stated) , growth inhibition: -5.35

Recorded result, COC(=O)CCC(=O)c1ccc2c(c1)CCC2 , growth inhibition: 33.5

Recorded result, Cc1c(C)c(C)c(CN2CCC(C)CC2)c(C)c1C , growth inhibition: 3.45

Recorded result, CCCCc1c2c(nc3c1CCCC3=O)CCCC2 , growth inhibition: 37.9

Recorded result, Cn1c(N(CCO)CCO)cnc1[N+](=O)[O-] , growth inhibition: -17.6

----------
- method_notes: NCI Yeast Anticancer Drug Screen. Data for the mec2-1 strain (AID 157)
- particulars: S. cerevisiae mec2-1 strain, at 50.0 µM, active compounds read high
The panel holds about 79,000 compounds, 15% with a hit somewhere; the sample as a whole holds those more often.
Provide the recorded growth inhibition for the entries that follow.
Expressed in %, but write only the number.

Recorded result, Oc1cccc(C(c2ccccc2)c2ccccc2)c1 , growth inhibition: 0.3

Recorded result, O=C(O)CNC(=O)CNC(=O)CNC(=O)CNC(=O)CNC(=O)OCc1ccccc1 , growth inhibition: -0.25

Recorded result, CCCCCCCCCCCCCCCCCC1=NCC(C)O1 (stereo not given) , growth inhibition: -14

Recorded result, O=C(Nc1ccc(Cl)c([N+](=O)[O-])c1)Oc1ccc2ccccc2c1 , growth inhibition: 3

Recorded result, CCC(O)(c1ccc(OC)cc1)C(c1ccc(OCc2ccccc2)cc1)c1ccc(OCc2ccccc2)cc1 (stereo not given) , growth inhibition: -22.2
